Reported pIC50 values for the following compounds.
molecular target: SIK1 (Homo sapiens); construct: purchased Carna Biosciences 02-131; experiment: biochemical; settings: 33P radioactive SIK kinase assay, AMARA peptide, 10 μM ATP; read-out: SIK1 IC50
Sequence (P57059 whole entry): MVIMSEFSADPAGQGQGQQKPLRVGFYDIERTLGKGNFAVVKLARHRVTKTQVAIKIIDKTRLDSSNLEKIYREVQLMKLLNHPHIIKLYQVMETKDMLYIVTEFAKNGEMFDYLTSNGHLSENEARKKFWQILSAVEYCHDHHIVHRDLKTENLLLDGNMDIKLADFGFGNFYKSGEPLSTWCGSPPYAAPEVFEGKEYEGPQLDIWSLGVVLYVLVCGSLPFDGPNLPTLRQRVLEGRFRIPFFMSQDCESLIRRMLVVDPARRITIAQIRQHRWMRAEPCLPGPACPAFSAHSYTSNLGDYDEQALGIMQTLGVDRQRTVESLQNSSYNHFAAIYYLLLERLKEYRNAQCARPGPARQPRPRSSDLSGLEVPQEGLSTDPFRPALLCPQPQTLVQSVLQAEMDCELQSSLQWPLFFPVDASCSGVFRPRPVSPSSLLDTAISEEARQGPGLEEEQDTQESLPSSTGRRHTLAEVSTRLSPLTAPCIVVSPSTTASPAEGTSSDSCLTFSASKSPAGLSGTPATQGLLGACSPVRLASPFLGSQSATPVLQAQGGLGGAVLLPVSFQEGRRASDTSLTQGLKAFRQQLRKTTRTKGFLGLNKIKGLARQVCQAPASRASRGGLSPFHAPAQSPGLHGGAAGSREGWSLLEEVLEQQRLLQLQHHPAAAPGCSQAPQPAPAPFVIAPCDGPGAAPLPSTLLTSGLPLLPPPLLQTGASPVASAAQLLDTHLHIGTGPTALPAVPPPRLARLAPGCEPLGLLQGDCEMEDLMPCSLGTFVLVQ
pIC50: −log10 of the molar value.

| compound | pIC50 |
| --- | --- |
| COc1cc(-n2cnc3cc(-c4cnn(C)c4)ccc32)cc(OC)c1C(=O)NC(C)(C)C | < 6.30 |
| COc1cc(-n2cnc3cc(-c4cn(C)nn4)ccc32)cc(OC)c1C(=O)NCC(F)(F)F | 7.00 to 8.00 |
| COc1cc(-n2cnc3cc(-c4cnn(C)c4)ccc32)cc(OC)c1C(=O)Nc1ccon1 | 7.00 to 8.00 |
| CCNC(=O)c1c(OC)cc(-n2cnc3cc(-c4ccc(N5CCOCC5)nc4)ccc32)cc1OC | 7.00 to 8.00 |
| COc1cc(-n2cnc3cc(-c4cncnc4)ccc32)cc(OC)c1C(=O)NCC(F)(F)F | < 6.30 |
| COc1cc(-n2cnc3cc(-c4cnn(C)c4)ccc32)cc(OC)c1C(=O)Nc1ccn(C)n1 | 6.30 to 7.00 |
| CCNC(=O)c1c(O)cc(-n2cnc3cc(-c4cnn(CC)c4)ccc32)cc1OC | 7.00 to 8.00 |
| COc1cc(-n2cnc3cc(-c4ccnc(N5CCN(C)CC5)c4)ccc32)cc(OC)c1C(=O)NCC(F)(F)F | 7.00 to 8.00 |
| CCn1cc(-c2ccc3c(c2)ncn3-c2cc(OC)c(C(=O)N(C)CC(C)C)c(OC)c2)cn1 | < 6.30 |
| COc1cc(-c2cnc3cc(-c4ccc(N5CCOCC5)nc4)ccn23)cc(OC)c1C(=O)NCC(F)(F)F | 8.00 to 11.00 |
| COc1cc(-n2cnc3cc(-c4cnn(C)c4)ccc32)cc(OC)c1C(=O)NCCN | 7.00 to 8.00 |
| COc1cc(-n2cnc3cc(-c4cnn(C)c4)ccc32)cc(OC)c1C(=O)NC[C@H]1COCCO1 | 6.30 to 7.00 |
| COc1cc(-c2cnc3cc(-c4cnn(C)c4)ccn23)cc(OC)c1C(=O)N1CC(C)(C)C1 | 8.00 to 11.00 |
| CCn1cc(-c2ccc3c(c2)ncn3-c2cc(OC)c(C(=O)NC3CCCC3)c(OC)c2)cn1 | 7.00 to 8.00 |
| COc1cc(-n2cnc3cc(-c4cnn(C)c4)ccc32)cc(OC)c1C(=O)NCc1ccn(C)n1 | < 6.30 |
| COc1cc(-c2cnc3cc(-c4cnn(CC(=O)OC(C)C)c4)ccn23)cc(OC)c1C(=O)NCC(F)(F)F | 8.00 to 11.00 |
| COCCCNC(=O)c1c(OC)cc(-n2cnc3cc(-c4cnn(C)c4)ccc32)cc1OC | 7.00 to 8.00 |
| COc1cc(-n2cnc3cc(-c4cnn(C)c4)ccc32)cc(OC)c1C(=O)N[C@@H]1CC[C@H]1O | 7.00 to 8.00 |
| COc1ncc(-c2ccc3c(c2)ncn3-c2cc(OC)c(C(=O)NCC(F)(F)F)c(OC)c2)cn1 | < 6.30 |
| COc1cc(-n2cnc3cc(-c4cnn(C)c4)ccc32)cc(OC)c1C(=O)NC(C)(C)C(F)(F)F | < 6.30 |
| CCn1cc(-c2ccc3c(c2)ncn3-c2cc(OC)c(C(=O)NCCO)c(OC)c2)cn1 | 6.30 to 7.00 |
| COc1cc(-c2cnc3cc(-c4cnn(C)c4)ccn23)cc(OC)c1C(=O)NC(C)C | 7.00 to 8.00 |
| COc1cc(-c2cnn3cc(-c4cnn(C)c4)ccc23)cc(OC)c1C(=O)NCC(F)(F)F | 8.00 to 11.00 |
| COc1cc(-n2cnc3cc(-c4cnn(C)c4)ccc32)cc(OC)c1C(=O)N1CC(c2ccccc2)C1 | 7.00 to 8.00 |
| COc1cc(-c2cnc3cc(-c4cnn(C)c4)ccn23)cc(Cl)c1C(=O)NCC(F)(F)F | 7.00 to 8.00 |
| CCC(C)NC(=O)c1c(OC)cc(-n2cnc3cc(-c4cnn(C)c4)ccc32)cc1OC (stereo not shown) | 6.30 to 7.00 |
| COc1cc(-c2cnc3cc(-c4cnn(C)c4)ccn23)cc(OC)c1C(=O)N1CCC(C#N)C1 (stereo not shown) | 7.00 to 8.00 |
| COc1cc(-n2cnc3cc(-c4cnn(C)c4)ccc32)cc(OC)c1C(=O)NCC(F)F | 7.00 to 8.00 |
| COc1cc(-c2cnc3cc(-c4cnn(C5CN(C(=O)OC(C)(C)C)C5)c4)ccn23)cc(OC)c1C(=O)NCC(F)(F)F | 8.00 to 11.00 |
| COc1cc(-c2cnc3cc(-c4cnn(C)c4)ccn23)cc(NCCO)c1C(=O)NCC(F)(F)F | 7.00 to 8.00 |
| CCCn1cc(-c2ccc3c(c2)ncn3-c2cc(OC)c(C(=O)NCC(F)(F)F)c(OC)c2)cn1 | 8.00 to 11.00 |
